targetOrSystem: HCV NS3/4A protease complex, BMS strain (UniProt P27958, species not given/STRAIN_BMS)
Construct: other: NS3/4A BMS strain; activity range class; numeric values, unit not given; said of H77 and J4L6S; fused on or other part: A three-lysine solubilising tail at the C-terminus of NS4A; A His tag is implied by the pET21b vector and Ni-NTA purification; Both are printed for the H77 and J4L6S constructs and apply to BMS by inference
Sequence (P27958 1027-1657, change not shown, one chain of several): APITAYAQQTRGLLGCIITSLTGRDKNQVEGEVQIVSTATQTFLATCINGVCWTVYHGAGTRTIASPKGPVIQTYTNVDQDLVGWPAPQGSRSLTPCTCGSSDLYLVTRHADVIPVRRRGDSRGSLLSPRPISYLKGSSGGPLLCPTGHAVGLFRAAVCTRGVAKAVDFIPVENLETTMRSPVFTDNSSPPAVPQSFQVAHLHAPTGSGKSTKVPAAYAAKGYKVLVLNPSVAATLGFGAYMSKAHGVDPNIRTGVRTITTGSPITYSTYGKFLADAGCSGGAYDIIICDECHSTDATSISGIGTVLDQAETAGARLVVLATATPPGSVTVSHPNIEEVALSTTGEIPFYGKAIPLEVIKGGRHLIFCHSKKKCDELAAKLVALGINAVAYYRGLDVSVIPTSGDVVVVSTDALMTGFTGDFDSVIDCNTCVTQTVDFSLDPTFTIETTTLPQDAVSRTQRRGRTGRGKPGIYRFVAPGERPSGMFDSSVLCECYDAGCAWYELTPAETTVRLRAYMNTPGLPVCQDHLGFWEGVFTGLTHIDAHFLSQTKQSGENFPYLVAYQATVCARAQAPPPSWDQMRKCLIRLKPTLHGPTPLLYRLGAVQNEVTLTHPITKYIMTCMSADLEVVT
methodNotes: FRET peptide assay to monitor HCV NS3/4A proteolytic activity (BMS strain)
Type: biochemical, Hepatitis C virus (genotype 1a)
runConditions: read-out: HCV Protease (IC50); NS3/4A BMS strain; activity range class
pIC50: −log10 of the molar value.
Recorded pIC50 by entry

Example entries begin here.
[[record]]
molecule = "C=C[C@@H]1C[C@]1(NC(=O)[C@@H]1C[C@@H](Oc2ncc(OC)c3ccc(Cl)cc23)CN1C(=O)[C@H](Nc1cccc(C(=O)N(C)C)c1)C(C)(C)C)C(=O)NS(=O)(=O)C1CC1 [218 second isomer]"
observedmeasurement = "< 6.70"

[[record]]
molecule = "C=C[C@@H]1C[C@]1(NC(=O)[C@@H]1C[C@@H](Oc2ncc(OC)c3ccc(Cl)cc23)CN1C(=O)[C@@H](Nc1ccc(C(=O)OC(C)(C)C)cc1)C(C)(C)C)C(=O)NS(=O)(=O)C1CC1 [204 first isomer]"
observedmeasurement = "7.70 to 9.22"

[[record]]
molecule = "C=C[C@@H]1C[C@]1(NC(=O)[C@@H]1C[C@@H](Oc2ncc(OC)c3ccc(Cl)cc23)CN1C(=O)C(Nc1cncc(C(F)(F)F)c1)C(C)(C)C)C(=O)NS(=O)(=O)C1CC1 (single isomer, unassigned) [27 second isomer]"
observedmeasurement = "6.70 to 7.70"


I'd like to know its pIC50. The molecule in question is C=C[C@@H]1C[C@]1(NC(=O)[C@@H]1C[C@@H](Oc2ncc(OC)c3ccc(Cl)cc23)CN1C(=O)C(Nc1nsnc1OC)C(C)C)C(=O)NS(=O)(=O)C1CC1 (some centres unmarked) [Compound 242]
7.70 to 9.22

I'd like to know its pIC50. The molecule in question is C=CCCCCCC(Nc1ccc(OC)nc1)C(=O)N1C[C@H](Oc2ncc(OC)c3ccc(Cl)cc23)C[C@H]1C(=O)N[C@]1(C(=O)NS(=O)(=O)C2CC2)C[C@H]1C=C (some centres unmarked) [Compound 411]
< 6.70

----------
targetOrSystem: HCV NS3/4A protease complex, BMS strain (UniProt P27958, species not given/STRAIN_BMS)
Construct: other: NS3/4A BMS strain; activity range class; numeric values, unit not given; said of H77 and J4L6S; fused on or other part: A three-lysine solubilising tail at the C-terminus of NS4A; A His tag is implied by the pET21b vector and Ni-NTA purification; Both are printed for the H77 and J4L6S constructs and apply to BMS by inference
methodNotes: FRET peptide assay to monitor HCV NS3/4A proteolytic activity (BMS strain)
Assay type: biochemical, Hepatitis C virus (genotype 1a)
runConditions: read-out: HCV Protease (IC50); NS3/4A BMS strain; activity range class
pIC50: −log10 of the molar value.
assayReadout: pIC50

I'd like to know its pIC50. The molecule in question is C=CC1CC1(NC(=O)C1CC(Oc2ncc(OC)c3ccc(Cl)cc23)CN1C(=O)C(Nc1ccccc1)C(C)(C)C)C(=O)NS(=O)(=O)C1CC1 (single isomer, unassigned; isomer 3) [213 second isomer]
7.70 to 9.22

I'd like to know its pIC50. The molecule in question is C=C[C@@H]1C[C@]1(NC(=O)[C@@H]1C[C@@H](Oc2nccc3cc(OC)ccc23)CN1C(=O)C(Nc1cc(OC)ccn1)C(C)C)C(=O)NS(=O)(=O)C1CC1 (single isomer, unassigned)
6.70 to 7.70

I'd like to know its pIC50. The molecule in question is C=C[C@@H]1C[C@]1(NC(=O)[C@@H]1C[C@@H](Oc2ncc(OC)c3ccc(Cl)cc23)CN1C(=O)[C@@H](Nc1ccc(F)c(F)c1)C(C)(C)C)C(=O)NS(=O)(=O)C1CC1 [220 first isomer]
7.70 to 9.22

I'd like to know its pIC50. The molecule in question is `C=C[C@@H]1C[C@]1(NC(=O)[C@@H]1C[C@@H](Oc2nc(-c3ccc(OC(F)(F)F)cc3)cc3cc(OC)ccc23)CN1C(=O)[C@@H](NC1=NCCCS1)C(C)(C)C)C(=O)NS(=O)(=O)C1CC1`
7.70 to 9.22

I'd like to know its pIC50. The molecule in question is C=C[C@@H]1C[C@]1(NC(=O)[C@@H]1C[C@@H](Oc2nc(N(C)C)cc3cc(OC)ccc23)CN1C(=O)C(Nc1cc(C)cc(C)n1)C(C)(C)C)C(=O)NS(=O)(=O)C1CC1 (single isomer, unassigned)
7.70 to 9.22

I'd like to know its pIC50. The molecule in question is C=C[C@@H]1C[C@]1(NC(=O)[C@@H]1C[C@@H](Oc2ncc(OC)c3ccc(Cl)cc23)CN1C(=O)C(Nc1ccc(OC)nc1)C(C)(C)C)C(=O)NS(=O)(=O)C1CC1 (single isomer, unassigned) [408 second isomer]
< 6.70

I'd like to know its pIC50. The molecule in question is C=C[C@@H]1C[C@]1(NC(=O)[C@@H]1C[C@@H](Oc2ncc(OC)c3ccc(Cl)cc23)CN1C(=O)[C@@H](Nc1ccc(S(=O)(=O)N(C)C)cc1)C(C)(C)C)C(=O)NS(=O)(=O)C1CC1 [224 first isomer]
7.70 to 9.22

I'd like to know its pIC50. The molecule in question is C=C[C@@H]1C[C@]1(NC(=O)[C@@H]1C[C@@H](Oc2nc3c(c4cc(OC)ccc24)OCCN3C)CN1C(=O)[C@@H](Nc1ccc(F)c(F)c1)C(C)(C)C)C(=O)NS(=O)(=O)C1CC1 [235 first isomer]
< 6.70

I'd like to know its pIC50. The molecule in question is C=C[C@@H]1C[C@]1(NC(=O)[C@@H]1C[C@@H](Oc2nccc3cc(OC)ccc23)CN1C(=O)C(Nc1nc(OC)cc(OC)n1)C(C)C)C(=O)NS(=O)(=O)C1CC1 (mixture of isomers)
6.70 to 7.70

Data origin, for the record: patent US7772180B2
